Test: NOD1 signaling inhibitors, primary screen, cell-based, luminescence, uHTS (AID 1578);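 also: HEK-293T reporter cells stimulated with the NOD1 agonist gamma-tri-DAP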
Conditions: NOD1-driven NF-kB luciferase reporter cells, at 4 µM
The campaign covered roughly 290,000 compounds. About 3,000 (1%) were called active. Rule as the data show it: active = inhibition mostly above about 36% (no sharp cut-off); inactive = mostly below about 34%. For the sample, actives were picked, then their nearest neighbours and some compounds at random.
Outcome codes: 1.0 for active, 0.0 for inactive

1. COc1ccc(CCNC(=O)C(=O)NCC2OCCN2C(=O)c2ccc(Cl)cc2)cc1OC (stereo not drawn) :: 0.0
2. Cc1ccc(S(=O)(=O)NC(CN2CCOCC2)=NCCNS(=O)(=O)c2ccccc2)cc1 :: 0.0
3. COc1ccc(OC(=O)N2CCOCC2)cc1 :: 0.0
4. CCC(=O)Nc1nc2ccccc2n1Cc1ccccc1 :: 0.0
5. CCN1C(=O)S/C(=C/c2ccc(Sc3nc4ccccc4[nH]3)o2)C1=O :: 0.0
6. COc1ccc(CCNc2oc(Cc3ccccc3)nc2C#N)cc1OC :: 0.0
7. Nn1c(Cc2ccccc2)n[nH]c1=S :: 0.0
8. CC(C)N1C(=O)S/C(=C/c2ccc(Sc3nc4ccccc4[nH]3)o2)C1=O :: 0.0
9. ON=C1c2cc(OCCN3CCCCC3)ccc2-c2ccc(OCCN3CCCCC3)cc21 :: 0.0
10. COc1ccc(C2NC(=O)NC3=C2C(=O)CCC3)cc1 (stereo not drawn) :: 0.0
11. NC(=S)NN=C1c2cc(S(=O)(=O)N3CCOCC3)ccc2-c2ccc(S(=O)(=O)N3CCOCC3)cc21 :: 0.0
12. CCCCCCCn1c(NC(=O)CC)nc2ccccc21 :: 1.0
13. CNC(=O)/C=C1\NC(C)(C)Cc2c1ccc1ccccc21 :: 0.0
14. c1ccc(C(c2nnnn2C2CCCC2)N2CCN(c3nc4ccccc4s3)CC2)cc1 (stereo not drawn) :: 0.0
15. NC(=S)NN=C1c2cc(OCCN3CCOCC3)ccc2-c2ccc(OCCN3CCOCC3)cc21 :: 1.0
16. CCC(=O)Nc1nc2ccccc2n1CCN(CC)CC :: 0.0
17. Cc1ccc(-n2cc(C(=O)O)c(=O)cc2C)c(C)c1 :: 0.0
18. Cc1ccc(-n2c(SCC(=O)N3CCCCC3)nc(O)c(Cc3ccccc3)c2=O)cc1 :: 0.0
19. COc1ccc2c(c1)C(=O)CC(c1ccccc1F)O2 (stereo not drawn) :: 0.0
20. CC(=O)c1ccc(NC(=O)Nc2ccc3c(c2)nc(C)n3C)cc1 :: 0.0
21. Cc1nc2cc(NC(=O)Nc3cccc4ccccc34)ccc2n1C :: 0.0
22. CCN1C(=NCc2ccc(OC)cc2)N[C@@H](c2ccccc2)C(C(=O)OC)=C1C :: 0.0
23. Cc1ccc2nc(-c3ccccn3)cc(C(=O)NCCc3ccc(F)cc3)c2c1 :: 0.0
